Answer each item with its documented CPE inhibition.
experiment: inhibitors of DENV2 cytopathic effect, primary screen, cell-based, plate reader, single concentration (AID 651640); details: DENV2-infected cells, cytopathic effect rescue, at 9.99 µM, stronger effect = higher value;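 also: 0% = median of neutral control wells and 100% = median of positive control wells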
The campaign covered roughly 350,000 compounds. About 6,000 (1.7%) were called active. Roughly 5% stayed inconclusive and do not appear here. Shown is part of a subset that was picked to be rich in actives.
Number only, in %; omit the unit.

Reported CPE inhibition for C[C@@H]1CN([C@@H](C)CO)C(=O)c2c(c3ccccc3n2C)-c2ccccc2CO[C@H]1CN(C)Cc1cccc(C(=O)O)c1 : what is it?
8.1

How about CCC1(c2ccccc2)NC(=O)N(CC(=O)c2ccc3c(c2)OCO3)C1=O (stereo not drawn) ?
4.81

How about O=C(NCC1CC1)[C@@H]1[C@@H](CO)[C@@H]2Cn3c(ccc(-c4ccccc4)c3=O)[C@H]1N2Cc1nccs1 ?
-2.52

meta.source: PubChem BioAssay AID651640
